FYI, the data here is from patent US20230131899A1.

- System: E. coli CsgA (Escherichia coli, UniProt P28307)
- Construct: made in house; host or cells: E. coli NEB 3016 slyD::kan, pET11d
- Sequence (P28307 23-151): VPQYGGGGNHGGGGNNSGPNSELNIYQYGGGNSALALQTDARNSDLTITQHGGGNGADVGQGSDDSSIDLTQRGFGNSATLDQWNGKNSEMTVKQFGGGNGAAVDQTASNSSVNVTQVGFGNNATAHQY
- Procedure Details: In vitro ThioflavinT assay of CsgA aggregation (CsgA ThT Assay)
- Assay type: biochemical
- Condition Summary: read-out: CsgA ThT Assay (10 μM CsgA) % Control AUC at 1005 minutes, 25 μM (activity range), CsgA 10 μM, black plates; compound 25 μM; 1005 minutes; class symbol
Measurement Name: remaining activity at 25 µM

>  <Molecule>
CN1CC(C(=O)O)n2c(c(-c3cccc(C(F)(F)F)c3)c(Cc3cccc4ccccc34)c(NC3CCCC3)c2=O)S1(=O)=O (stereo not drawn)

>  <System>
E. coli CsgA (Escherichia coli, UniProt P28307)

>  <Readout Value>
11 to 31%

$$$$

Items follow; give remaining activity at 25 µM for each.
1. CN1CC(C(=O)O)n2c(c(-c3cccc(C(F)(F)F)c3)c(Cc3cccc4ccccc34)cc2=O)S1(=O)=O (single isomer, unassigned) [Compound 008a]
2. CNC(=O)C1CN(C)S(=O)(=O)c2c(-c3cccc(C(F)(F)F)c3)c(Cc3cccc4ccccc34)cc(=O)n21 (stereo not drawn)

1: > 60%; 2: > 60%

====

Give measured remaining activity at 100 µM for each item. Keep answers brief.
- System: E. coli CsgA (Escherichia coli)
- Construct: made in house; host or cells: E. coli NEB 3016 slyD::kan, pET11d
- Procedure Details: In vitro ThioflavinT assay of CsgA aggregation (CsgA ThT Assay)
- Type: biochemical
- Condition Summary: read-out: CsgA ThT Assay (2 μM CsgA) % Control Bmax 100 μM, activity range, class symbol; CsgA 2 μM, white plates; compound 100 μM

>  <Compound>
CCCN1CC(C(=O)O)n2c(c(-c3cccc(C(F)(F)F)c3)c(Cc3cccc4ccccc34)c(NC(C)C)c2=O)S1(=O)=O (stereo not drawn) [Compound 149]

>  <Measurement Name>
remaining activity at 100 µM

>  <Readout Value>
> 60%

$$$$
>  <Compound>
CCCNC(=O)c1c(Cc2cccc3ccccc23)c(-c2cccc(C(F)(F)F)c2)c2n(c1=O)C(C(=O)O)CN(C)S2(=O)=O (stereo not drawn) [Compound 154]

>  <Measurement Name>
remaining activity at 100 µM

>  <Readout Value>
> 60%

$$$$
>  <Compound>
O=C(O)C1CN(Cc2ccccc2)c2c(-c3cccc(C(F)(F)F)c3)c(Cc3cccc4ccccc34)c(F)c(=O)n21 (stereo not drawn) [Compound 194]

>  <Measurement Name>
remaining activity at 100 µM

>  <Readout Value>
> 60%

$$$$

Items follow; give remaining activity at 100 µM for each.
1. CCc1c(Cc2cccc3ccccc23)c(-c2cccc(C(F)(F)F)c2)c2n(c1=O)C(C(=O)O)CN2Cc1ccc(OC)cc1 (stereo not drawn) [Compound 161]
2. CCCN1CC(C(=O)O)n2c(c(-c3cccc(C(F)(F)F)c3)c(Cc3cccc4ccccc34)c(OC(C)C)c2=O)S1(=O)=O (stereo not drawn) [Compound 148]
3. O=C(O)C1CN(CCCCCCCN2CC(C(=O)O)n3c2c(-c2cccc(C(F)(F)F)c2)c(Cc2cccc4ccccc24)c(Cl)c3=O)c2c(-c3cccc(C(F)(F)F)c3)c(Cc3cccc4ccccc34)c(Cl)c(=O)n21 (stereo not drawn) [Compound 188]

["11 to 31%", "> 60%", "11 to 31%"]
